# assay.notes: solvent given as SMILES
# assay.conditions: in CS(C)=O
emission maximum values, listed per item

>  <compound>
C(/C=C/Nc1ccccc1)=[NH+]c1ccccc1

>  <val>
492 nm

$$$$
>  <compound>
CCCCCCCCCCCCOc1cc2cc(N(C)C)ccc2cc1C=O

>  <val>
494 nm

$$$$
>  <compound>
CCCCCCCCC1(CCCCCCCC)c2cc(C=O)ccc2-c2ccc(/C=C/c3ccc(N(c4ccccc4)c4ccccc4)cc3)cc21

>  <val>
485 nm

$$$$
>  <compound>
O=C(N/N=C/c1ccccc1O)c1ccccc1

>  <val>
552 nm

$$$$
>  <compound>
CCOC(=O)CN1C(=O)C2=C(c3ccc(N4CCCCC4)cc3)N(CC(=O)OCC)C(=O)C2=C1c1ccc(N2CCCCC2)cc1

>  <val>
603 nm

$$$$

Field emission maximum (entry c1ccc(N(c2ccccc2)c2ccc(-c3ncnc4ccccc34)cc2)cc1 ) reads 563 nm

Field emission maximum (entry CCN(CC)c1ccc(-c2cc3c(s2)c(C(=O)OC)cc(=O)n3C)cc1 ) reads 615 nm

Field emission maximum (entry CCCN1/C(=C/C=C/C=C/C2=[N+](CCC)c3ccccc3C2(C)C)C(C)(C)c2ccccc21 ) reads 660 nm
